Data credit: patent US20260042755A1

# TARGET_OF_ASSAY: GPR6 (Homo sapiens)
# Construct: expressed in transfected cells; host or cells: CHO cells
# Sequence (P46095 whole entry): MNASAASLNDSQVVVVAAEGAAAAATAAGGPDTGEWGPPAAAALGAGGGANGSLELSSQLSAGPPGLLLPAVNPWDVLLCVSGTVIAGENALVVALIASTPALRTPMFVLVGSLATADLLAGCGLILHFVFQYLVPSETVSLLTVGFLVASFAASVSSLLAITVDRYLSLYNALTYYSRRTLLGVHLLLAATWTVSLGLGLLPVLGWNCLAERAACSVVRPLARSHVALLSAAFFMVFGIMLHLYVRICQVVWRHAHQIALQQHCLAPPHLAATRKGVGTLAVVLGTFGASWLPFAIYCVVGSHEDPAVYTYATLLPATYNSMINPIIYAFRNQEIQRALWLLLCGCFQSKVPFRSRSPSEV
# EXPERIMENTAL_PROTOCOL: GPR6 antagonist functional cAMP assay (LANCE Ultra cAMP TR-FRET, CHO cells stably expressing GPR6)
# Type: cell-based
# CONDITION: procedure of Example 24
READOUT_NAME: IC50

// solved cases for IC50 follow
CC(C)(O)[C@](C)(O)c1cc2nc(N3CCN(Cc4ccccc4F)CC3)c(-c3cnn(CF)c3)nc2cn1 (single isomer, unassigned)    100 to 1000 nM
CC(C)(O)C(O)c1cc2nc(-c3cnn(CF)c3)c(N3CCN(Cc4ccccc4F)CC3)nc2cn1 (single isomer, unassigned)    100 to 1000 nM
CC(C)(O)C(C)(O)c1cc2nc(-c3cnn(C(F)F)c3)c(N3CCN(Cc4ccc(F)cc4F)CC3)nc2cn1 (single isomer, unassigned) [Compound 663]    < 100 nM
Cn1cc(-c2nc3cnccc3nc2N2CCN(Cc3ccc(F)cc3F)C[C@H]2CO)cn1 (single isomer, unassigned)    ≥ 30000 nM
CC(=O)N1CCc2nc(N3CCC(Oc4cc(F)ccc4F)C3)c(-c3cnn(C)c3)nc2C1 (stereo not shown)    1000 to 30000 nM
CC(C)(O)[C@H](O)c1cc2nc(-c3cnn(C4CC4)c3)c(N3CCN(Cc4ccccc4F)CC3)nc2cn1 (single isomer, unassigned)    100 to 1000 nM
Cn1cc(-c2nc3cnc([C@@H](O)C(C)(C)F)cc3nc2N2CCC(Oc3ccc(F)cc3F)CC2)cn1 (single isomer, unassigned)    100 to 1000 nM
CC(C)(O)C(C)(O)c1cc2nc(N3CCC(Oc4ccc(F)cc4F)CC3)c(-c3cnn(C(F)F)c3)nc2cn1 (stereo not shown)    100 to 1000 nM
COC(=O)/C(C)=C/c1cc2nc(N3CCC(Oc4ccc(F)cc4F)CC3)c(-c3cnn(C)c3)nc2cn1    1000 to 30000 nM
CC(C)(O)[C@@](C)(O)c1cc2nc(N3CCC(Oc4ccc(F)cc4F)CC3)c(-c3cnn(C(F)F)c3)nc2cn1 (single isomer, unassigned)    100 to 1000 nM

Bench note, GPR6 (Homo sapiens): `CCn1cc(-c2nc3cnc(NC(C)=O)cc3nc2N2CCC(Oc3ccc(F)cc3F)CC2)cn1` , IC50 reads 1000 to 30000 nM

For the molecule `CC(C)(O)C(=O)c1cc2nc(N3CCC(Oc4ccc(F)cc4F)CC3)c(-c3cnn(C(F)F)c3)nc2cn1` , the measured IC50 on GPR6 (Homo sapiens) was 100 to 1000 nM

GET /values?item= COC[C@@H](O)c1cc2nc(-c3cnn(C)c3)c(N3CCC(Oc4ccc(F)cc4F)CC3)nc2cn1 (single isomer, unassigned) &system= GPR6 (Homo sapiens) returns IC50: < 100 nM

###

# TARGET_OF_ASSAY: GPR6 (Homo sapiens)
# Construct: expressed in transfected cells; host or cells: CHO cells
# EXPERIMENTAL_PROTOCOL: GPR6 antagonist functional cAMP assay (LANCE Ultra cAMP TR-FRET, CHO cells stably expressing GPR6)
# Type: cell-based
# CONDITION: CHO cells stably expressing GPR6, cAMP assay (Example 24)
Here the recorded IC50 is given for each entry.

Look over these answered cases.
CNc1cc2nc(N3CCC(Oc4ccc(F)cc4F)CC3)c(-c3cnn(C)c3)nc2cn1    1000 to 30000 nM
COCC1CC1c1nc2c(nc1N1CCC(Oc3ccc(F)cc3F)CC1)CCN(C(C)=O)C2 (stereo not drawn)    100 to 1000 nM
CC(=O)N1CCc2nc(N3CCC(Oc4ccc(F)cc4F)CC3)c(-c3cnn(CCO)c3)nc2C1    1000 to 30000 nM
Fc1ccc(CN2CCN(c3nc4cnccc4nc3-c3ncc[nH]3)CC2)c(Cl)c1    1000 to 30000 nM
CCn1cc(-c2nc3c(nc2N2CCC(Oc4cc(Cl)ccc4Cl)CC2)CCN(C[C@@H](O)CO)C3)cn1 (single isomer, unassigned)    100 to 1000 nM

Reported IC50 of `COc1cc(-c2nc3c(nc2N2CCC(Oc4ccc(F)cc4F)CC2)CCN(C(C)=O)C3)cnn1` : 1000 to 30000 nM

The reported IC50 of the molecule `CNC(=O)c1cccc(-c2nc3c(nc2N2CCC(Oc4ccc(F)cc4F)CC2)CCN(C(C)=O)C3)n1` was 1000 to 30000 nM
